Reference source: paper PMC8767159

// reported Tmax for each item listed
Assay: In vivo pharmacokinetics in male CD1 mice
Set-up: species or system mouse
Conditions: male, CD1, mouse, plasma, 0.5 mg/kg; Table S6; PO, mice
Could you give me the number in min? Just the number is fine.

Here is how some compounds turned out for Tmax.
O=C(COc1cccc([N+](=O)[O-])c1)NCCc1nc2ccccc2[nH]1 | 18.6
O=C(Cn1ccnc1[N+](=O)[O-])NCc1ccccc1 [BZ, benznidazole, reference compound] | 24
O=C(COc1ccccc1)NCCc1nc2ccccc2[nH]1 | 19.2
NC(=O)Cn1c(CCNC(=O)COc2ccccc2)nc2ccccc21 | 30.6
CC(=O)Nc1ccc(OCC(=O)NCCc2nc3ccccc3[nH]2)cc1 | 49.8

Q: Quick one: Tmax of `CC(=O)Nc1cccc(OCC(=O)NCCc2nc3ccccc3[nH]2)c1` ?
Result: 26.4

---

Assay: In vivo pharmacokinetics in male CD1 mice
Set-up: species or system mouse
Details: Table 6; plasma clearance corrected for the fraction unbound, IV
Rule for this label: 1.0 means CLpu is less than 3000 mL/min/kg; 0.0 means CLpu is at least 3000 mL/min/kg.

O=C(CCc1ccccc1Br)NCCc1nc2ccccc2[nH]1 [Compound 36] | 0.0

Q: Does Cc1ccccc1OCC(=O)NCCc1nc2ccccc2[nH]1 [Compound 17] have CLpu strictly under 3000 mL/min/kg?
Result: 1.0

Q: Does N#Cc1ccccc1OCC(=O)NCCc1nc2ccccc2[nH]1 [Compound 31] have CLpu strictly under 3000 mL/min/kg?
Result: 1.0

Q: Does O=C(COc1ccc(Br)cc1)NCCc1nc2ccccc2[nH]1 [Compound 33] have CLpu strictly under 3000 mL/min/kg?
Result: 1.0

Q: Does Cc1ccccc1OCC(=O)NCCc1nc2ccccc2o1 [Compound 37] have CLpu strictly under 3000 mL/min/kg?
Result: 0.0

Q: Does C=CCCn1c(CCNC(=O)COc2ccccc2Cl)nc2ccccc21 [Compound 38] have CLpu strictly under 3000 mL/min/kg?
Result: 0.0

---

Assay: Parallel artificial membrane permeability assay (PAMPA)
Assay type: in vitro ADME
Settings: Table S5; unit inferred
experimental_readout: Papp at 5 h, 1 µM (×10⁻⁶ cm/s)
Could you give me the number in ×10⁻⁶ cm/s? Just the number is fine.

Here is how some compounds turned out for Papp at 5 h, 1 µM.
Cc1ccccc1OCC(=O)NCCc1nc2ccccc2n1CCOc1ccccc1Br | 0.04
O=C(COc1ccccc1)NCCc1nc2ccccc2n1CCOc1ccccc1Br | 0.08
O=C(COc1ccccc1)NCCc1nc2ccccc2n1CCOCc1ccccc1 | 3.98
COCCn1c(CCNC(=O)COc2ccccc2)nc2ccccc21 | 9.35
O=C(COc1ccc2ccc(O)cc2c1)NCCc1nc2ccccc2[nH]1 | 0.13
Cn1c(CCNC(=O)COc2ccccc2)nc2ccccc21 | 6.55
O=C(COc1cccc(NC(=O)CCCO)c1)NCCc1nc2ccccc2[nH]1 | 0.03
O=C(COc1cccc(N2C(=O)CCC2=O)c1)NCCc1nc2ccccc2[nH]1 | 0.2
O=C(COc1ccc(N2C(=O)CCC2=O)cc1)NCCc1nc2ccccc2[nH]1 | 0.17
O=C(COc1ccccc1Br)NCCc1nc2ccccc2n1CCOc1ccccc1Br | 0.08

Q: Quick one: Papp at 5 h, 1 µM of `O=C(COc1ccc(NC(=O)CCCO)cc1)NCCc1nc2ccccc2[nH]1` ?
Result: 0.02

Q: Quick one: Papp at 5 h, 1 µM of `O=C(COc1ccccc1)NCCc1nc2ccccc2n1-c1ccccc1` ?
Result: 17.8

---

Test: In vivo pharmacokinetics in male CD1 mice
Set-up: species or system mouse
Details: male, CD1, mouse, plasma, 0.5 mg/kg; Table S6; PO, mice; read-out: T1/2 (h) PO (converted)
Rule for this label: criterion met means half-life is less than 1 h; criterion not met means half-life is at least 1 h.

Past entries and their recorded results:
O=C(COc1cccc([N+](=O)[O-])c1)NCCc1nc2ccccc2[nH]1 | criterion met
O=C(Cn1ccnc1[N+](=O)[O-])NCc1ccccc1 [BZ, benznidazole, reference compound] | criterion not met
NC(=O)Cn1c(CCNC(=O)COc2ccccc2)nc2ccccc21 | criterion met
O=C(COc1ccccc1)NCCc1nc2ccccc2[nH]1 | criterion met

Let us examine a further case.
Q: Does `CC(=O)Nc1ccc(OCC(=O)NCCc2nc3ccccc3[nH]2)cc1` have half-life strictly under 1 h?
Result: criterion not met

---

Test: Fraction unbound by equilibrium dialysis
Format: in vitro ADME
Details: pH 7.4; Table S5; fraction unbound
Each entry gets criterion not met if its fraction unbound at 4 h, 1 µM stays under 0.6, and criterion met if its fraction unbound at 4 h, 1 µM is 0.6 or above.

Past entries and their recorded results:
O=C(COc1ccccc1)NCCc1nc2ccccc2[nH]1 [Compound 1] | criterion met
COCCn1c(CCNC(=O)COc2ccccc2)nc2ccccc21 [Compound 29] | criterion met

Q: Item O=C(COc1cccc(N2C(=O)CCC2=O)c1)NCCc1nc2ccccc2[nH]1 [Compound 6] with fraction unbound at 4 h, 1 µM of 0.6 or above?
Result: criterion met

Q: Item Cc1ccccc1OCC(=O)NCCc1nc2ccccc2n1CCOc1ccccc1Br [Compound 22] with fraction unbound at 4 h, 1 µM of 0.6 or above?
Result: criterion not met

---

// reported fraction unbound at 4 h, 1 µM for each item listed
Test: Fraction unbound by equilibrium dialysis
Format: in vitro ADME
Details: pH 7.4; Table S5; fraction unbound
Output spec: single numeric token, no unit.

Here is how some molecules turned out for fraction unbound at 4 h, 1 µM.
O=C(COc1ccccc1)NCCc1nc2ccccc2n1CCOCc1ccccc1 [Compound 21] | 0.47
O=C(COc1ccc2c(C(=O)O)cccc2c1)NCCc1nc2ccccc2[nH]1 [Compound 15] | 1
O=C(COc1ccccc1)NCCc1nc2ccccc2n1-c1ccccc1 [Compound 30] | 0.63
O=C(COc1cccc([N+](=O)[O-])c1)NCCc1nc2ccccc2[nH]1 [Compound 8] | 1
Nc1cccc(OCC(=O)NCCc2nc3ccccc3[nH]2)c1 [Compound 9] | 0.99

Next item in the queue.
Q: Quick one: fraction unbound at 4 h, 1 µM of O=C(COc1ccc2ccc(O)cc2c1)NCCc1nc2ccccc2[nH]1 [Compound 11] ?
Result: 0.67

---

Assay: In vitro metabolic stability in mouse liver microsomes
Format: in vitro ADME
Details: Table S5, CLint/fu
// reported CLint_u (L/h/kg) Mouse for each item listed
Could you give me the number in L/h/kg? Just the number is fine.

O=C(COc1ccc2ccccc2c1CO)NCCc1nc2ccccc2[nH]1 [Compound 46] | 981.84
Nc1ccccc1OCC(=O)NCCc1nc2ccccc2[nH]1 [Compound 42] | 29.45
CC(=O)NCCc1nc2ccccc2n1CCOCc1ccccc1 [Compound 56] | 98.14

Q: Quick one: CLint_u (L/h/kg) Mouse of CC(=O)NCCc1nc2ccccc2n1CCOc1ccccc1Br [Compound 57] ?
Result: 325.19

Q: Quick one: CLint_u (L/h/kg) Mouse of O=C(CCOc1ccccc1)NCCc1c[nH]c2ccccc12 [Compound 58] ?
Result: 641.15

Q: Quick one: CLint_u (L/h/kg) Mouse of O=C(COc1ccccc1Cl)NCCc1nc2ccccc2[nH]1 [Compound 40] ?
Result: 419.09

Q: Quick one: CLint_u (L/h/kg) Mouse of O=C(COc1ccc2ccccc2c1O)NCCc1nc2ccccc2[nH]1 [Compound 47] ?
Result: 939.71

---

// reported clearance for each item listed
Test: In vivo pharmacokinetics in male CD1 mice
Parameters: species or system mouse
Settings: male, CD1, mouse, 0.5 mg/kg; Table S6; plasma clearance, IV, mice; read-out: CLp (L/h/kg) IV (converted)
Could you give me the number in L/h/kg? Just the number is fine.

NC(=O)Cn1c(CCNC(=O)COc2ccccc2)nc2ccccc21 | 0.73
O=C(COc1ccccc1)NCCc1nc2ccccc2[nH]1 | 4.01

Next item in the queue.
Q: Quick one: clearance of `CC(=O)Nc1ccc(OCC(=O)NCCc2nc3ccccc3[nH]2)cc1` ?
Result: 2.03

---

// reported IC50 at 72 h for each item listed
Experiment: Cytotoxicity MTS assay in HFF-1 fibroblasts
Type: cell-based
Details: human HFF-1 fibroblasts

Here is how some compounds turned out for IC50 at 72 h.
CC(=O)Nc1cccc(OCC(=O)NCCc2nc3ccccc3[nH]2)c1 [Compound 3] | > 100 µM
C=CCCn1c(CCNC(=O)COc2ccccc2Cl)nc2ccccc21 [Compound 38] | > 100 µM
COc1cccc2c1C(=O)c1c(O)c3c(c(O)c1C2=O)C[C@@](O)(C(=O)CO)C[C@@H]3O[C@H]1C[C@H](N)[C@H](O)[C@H](C)O1 [Doxorubicin, reference compound] | 0.26 µM
O=C(COc1ccc(Br)cc1)NCCc1nc2ccccc2[nH]1 [Compound 33] | > 100 µM
CC(=O)Nc1ccc(OCC(=O)NCCc2nc3ccccc3[nH]2)cc1 [Compound 2] | > 100 µM

Q: Quick one: IC50 at 72 h of O=C(COc1ccc2cc(O)ccc2c1)NCCc1nc2ccccc2[nH]1 [Compound 10] ?
Result: > 100 µM

Q: Quick one: IC50 at 72 h of Cc1ccccc1OCC(=O)NCCc1nc2ccccc2o1 [Compound 37] ?
Result: > 100 µM
